Sourced from PubChem BioAssay (NCI)

Please respond with reported growth inhibition for every item in the list.
# assayNotes: NCI Yeast Anticancer Drug Screen. Data for the sgs1 mgt1 strain (AID 161);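 also: 0% = growth of cultures given vehicle only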
# assayContext: S. cerevisiae sgs1 mgt1 strain, at 50.0 µM (retest, dose inferred, filed as 5.0), active compounds read high
This is part of a sample that, as a whole, favours compounds with a hit. Of some 79,000 tested, about 15% had one in any assay.
Numbers only, in %.

Examples with answers:
compound	growth inhibition [%]
Cc1ccc2nc(N/N=C/c3ccc(C)s3)cc(C)c2c1	9
COc1ccc(C(=O)NCCN(C)C)c2nc3ccccc3cc12	39
N#C/C(=C1C=C/C(=N\O)C(Cl)=C\1)c1ccccc1	85
Cc1[nH]nc(C(F)(F)F)c1N=NN(C)C	98

Give growth inhibition for all compounds that follow.
1. CCN(CC)CCSc1c2ccccc2nc2cc(NCC(=O)Nc3ccccc3-c3ccccc3NC(=O)CNc3ccc4c(SCCN(CC)CC)c5ccccc5nc4c3)ccc12
2. S=C1NC2=C(CSC/C2=C\c2ccc(Cl)cc2)C(c2ccc(Cl)cc2)N1 (stereo not given)
3. Cc1cnccc1N=Nc1ccc(N(C)C)cc1

Response:
1: 97; 2: 92; 3: 46

---

# assayNotes: NCI Yeast Anticancer Drug Screen. Data for the mec2-1 strain (AID 157)
# assayContext: S. cerevisiae mec2-1 strain, at 100.0 µM, active compounds read high
Compounds without any hit were thinned out: in the full panel of roughly 79,000, 15% have a hit.
Outcome label depends on growth inhibition relative to 90%: at/above gives 1.0, below gives 0.0.

smiles	classLabel
O=Cn1c2ccccc2c2ccccc21	0.0
Clc1ccc(C(c2ccc(Cl)cc2)N2CCNCC2)cc1	1.0
Nc1cccc2cc(Cl)cnc12	0.0

Query: Check this molecule for growth inhibition at or above 90%: "O=S(=O)(O)CC[S][Sn]([S]CCS(=O)(=O)O)([c]1ccccc1)[c]1ccccc1"
Response: 1.0

Query: Check this molecule for growth inhibition at or above 90%: "O=c1c(Br)cc2c(-c3ccccc3)c3cc(Br)c(O)c(Br)c3oc-2c1Br"
Response: 0.0

Query: Check this molecule for growth inhibition at or above 90%: "CN(C)/N=N/c1nc[nH]c1C(N)=O"
Response: 1.0

Query: Check this molecule for growth inhibition at or above 90%: "Cc1cccc[c]1[Sn]([Cl])([S]/C(C#N)=N/N=C/c1ccc(N(C)C)cc1)[c]1ccccc1C"
Response: 1.0

---

# assayNotes: NCI Yeast Anticancer Drug Screen. Data for the rad18 strain (AID 177)
# assayContext: S. cerevisiae rad18 mutant growth inhibition; at 33.0 µM; active compounds read high
This is part of a sample that, as a whole, favours compounds with a hit. Of some 79,000 tested, about 15% had one in any assay.
Class definitions on growth inhibition: bucket A (below 30%), bucket B (30% to below 90%), bucket C (90% or more)

The examples below pair each entry with its known result.
compound	classLabel
CCCCCC(=O)C(C)(c1nc2n(c1O)/C(=N/C(=O)Nc1ccc(Cl)cc1)N=N2)c1nc2n(c1O)/C(=N/C(=O)Nc1ccc(Cl)cc1)N=N2	bucket A
COc1ccc2nc3cccc([N+](=O)[O-])c3c(NCCCO)c2c1	bucket C
Oc1ccc(Br)cc1C=Nc1cccc(C(F)(F)F)c1	bucket B
CCCCOc1ccc(Nc2c3ccccc3nc3ccccc23)cc1	bucket C
[N-]=[N+]=NC1CC(n2ccc(=O)[nH]c2=O)OC1COC(c1ccccc1)(c1ccccc1)c1ccccc1 (configuration not stated)	bucket C

Query: // bin(item) where item = "O=C1C(Br)=CC(Br)(Br)C=C1Br"
Response: bucket C

Query: // bin(item) where item = O=C1c2ccccc2-c2ccc(NC(=O)C3CCCCC3C(=O)O)cc21 (configuration not stated)
Response: bucket B

Query: // bin(item) where item = "O=C(CCCN1CCC2(CC1)OC(=O)N(c1ccccc1)C2=O)c1ccccc1"
Response: bucket B

Query: // bin(item) where item = "COC1=C(N=[N+]=[N-])C(=O)c2ncccc2C1=O"
Response: bucket C

Query: // bin(item) where item = "CCN(CC)c1cccc(Nc2nc3ccccc3s2)c1"
Response: bucket A

---

# assayNotes: NCI Yeast Anticancer Drug Screen. Data for the bub3 strain (AID 167)
# assayContext: S. cerevisiae bub3 mutant strain, at 50.0 µM, active compounds read high
Compounds without any hit were thinned out: in the full panel of roughly 79,000, 15% have a hit.
readout: growth inhibition (%)
Answers are plain numbers, in %.

compound	growth inhibition [%]
O=C1c2ccccc2-c2ccc(NC(=O)C3CCCCC3C(=O)O)cc21 (stereo not given)	90.5

Give growth inhibition for all compounds that follow.
1. O=C1c2ccccc2C(=O)C1C(c1ccc(F)cc1)C1C(=O)c2ccccc2C1=O
2. Cc1c2ccncc2c(C)c2c1oc1ccccc12
3. Cc1cc(NCCCN(C)C)c2ccc3c(ccc4c(NCCCN(C)C)cc(C)nc43)c2n1
4. CN(NC(=O)/C(=C/C=C/c1ccccc1)NC(=O)c1ccccc1)C1=C(Cl)C(=O)[N+](c2ccccc2)=CC1

Response:
1. 79
2. 96.4
3. 11.3
4. 70.4

---

# assayNotes: NCI Yeast Anticancer Drug Screen. Data for the rad14 strain (AID 159);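 also: 0% = growth of vehicle-treated control cultures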
# assayContext: S. cerevisiae rad14 strain growth inhibition; at 11.0 µM; active compounds read high
Compounds without any hit were thinned out: in the full panel of roughly 79,000, 15% have a hit.
readout: growth inhibition (%)
Give bare numbers, in %.

Examples with answers:
compound	growth inhibition (%)
CCCC#CCOC(=O)c1cc([N+](=O)[O-])cc([N+](=O)[O-])c1	98
CC(C)OC(CCC#N)c1ccc(Cl)cc1 (stereo not given)	-12
O=S(=O)(Oc1c(Cl)cc(Cl)cc1Cl)c1ccccc1	8
O=[N+]([O-])c1cccc2nc3ccccc3c(NCCC[N+]3([O-])CCOCC3)c12	96
c1cc(Nc2ccc3c(c2)OCO3)c2cc(C3CCCCC3)ccc2n1	7

Give growth inhibition for all compounds that follow.
1. Nc1nc(Nc2ccccc2)nc(Nc2ccccc2)n1
2. Cc1c(N=Nc2ccc(Cl)cc2)c(C)n(C2OC(CO)C(O)C(O)C2O)c(=S)c1C#N (stereo not given)
3. CC1C=CN(N(C)C)C2=C1C(=O)c1cnccc1C2=O (stereo not given)
4. CCOC(=O)C1=C(C)NC(C)=C(C(=O)OCC)C1c1cccc([N+](=O)[O-])c1
5. CCOC(=O)C(NC(=O)c1ccccc1)[CH](c1ccccc1)[Sn]([c]1ccccc1)([c]1ccccc1)[c]1ccccc1 (stereo not given)

Response:
1: 1; 2: 6; 3: 46; 4: -17; 5: 4

---

Please respond with reported growth inhibition for every item in the list.
# assayNotes: NCI Yeast Anticancer Drug Screen. Data for the mec2-1 strain (AID 157)
# assayContext: S. cerevisiae mec2-1 strain, at 50.0 µM, active compounds read high
About 79,000 compounds went through this panel and 15% of them were active in at least one assay; those are over-represented in the sample as a whole.
Give bare numbers, in %.

Examples with answers:
molecule	growth inhibition, %
Nc1nc(Nc2ccccc2)nc(Nc2ccccc2)n1	85.8
CC(=O)O/N=C/c1c2ccccc2cc2ccccc12	8.65
Cc1ccc2c(/C=C/c3ccc(N(C)C)cc3)ccnc2c1C	84.8
c1cc2ccc3cc4ncccc4c4ccc(c1)c2c34	97.5
O=C(CCCN1CCC2(CC1)OC(=O)N(c1ccccc1)C2=O)c1ccccc1	47.2
[O-]c1c2cc(-[n+]3c(-c4ccccc4)cc(-c4ccccc4)cc3-c3ccccc3)cc1COCCOCCOCCOCCOC2	33
Cc1ccccc1C1=C(CC(=O)O)c2ccccc2CC1C (configuration not stated)	99.7
BrC/C=C/C[P+](c1ccccc1)(c1ccccc1)c1ccccc1	92.9
COC1=C(N=[N+]=[N-])C(=O)c2ncccc2C1=O	85.5
Cc1ccc(Cl)c2c(=O)c3ccccc3[nH]c12	40

Give growth inhibition for all molecules that follow.
1. Cc1ccc(SSc2ccc(C)cc2[N+](=O)[O-])c([N+](=O)[O-])c1
2. c1ccc2cc(OCC3CO3)c(OCC3CO3)cc2c1 (configuration not stated)
3. O=C1OC(/C=C/c2ccccc2)Sc2ccccc21 (configuration not stated)
4. O=C(O)[C@H]1[C@@H](C2CCCCC2)O[C@@H](C2CCCCC2)O[C@H]1C(F)(F)F

Response:
78.7
58.8
29.8
91.8

---

# assayNotes: NCI Yeast Anticancer Drug Screen. Data for the rad50EPP+ strain (AID 151);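 also: 0% = growth of vehicle-treated control cultures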
# assayContext: S. cerevisiae rad50 mutant strain, at 100.0 µM
This is part of a sample that, as a whole, favours compounds with a hit. Of some 79,000 tested, about 15% had one in any assay. Activity calls are given as the source filed them. No stated cut-off is given here; in the data, active means growth inhibition above about 70%; inactive means the rest.
Valid outcomes are listed here; reply with one: active, inactive

The examples below pair each entry with its known result.
molecule	classLabel
O=C(Cc1ccccc1)c1ccc(O)cc1	active
CN(C)c1ccc(/C=C/c2ccnc3ccc4ccccc4c23)cc1	inactive
S=C1NC2=C(CSC/C2=C\c2ccc(Cl)cc2)C(c2ccc(Cl)cc2)N1 (stereo unspecified)	inactive

Query: Call for entry "O=C1C(Br)=CC(Br)(Br)C=C1Br" :
Response: active

Query: Call for entry "CCCC#CCOC(=O)c1cc([N+](=O)[O-])cc([N+](=O)[O-])c1" :
Response: active

Query: Call for entry "COc1ccc(/C=C2\CCc3ccccc3C2=O)cc1OC" :
Response: inactive

Query: Call for entry CCOC(=O)C(NC(=O)c1ccccc1)[CH](c1ccccc1)[Sn]([c]1ccccc1)([c]1ccccc1)[c]1ccccc1 (stereo unspecified) :
Response: inactive
